Value source: paper PMC11819603

# system.under.test: DHPS (Homo sapiens, UniProt P49366)
# Construct: host or cells: E. coli BL21 (DE3)
# Sequence (P49366 1-369): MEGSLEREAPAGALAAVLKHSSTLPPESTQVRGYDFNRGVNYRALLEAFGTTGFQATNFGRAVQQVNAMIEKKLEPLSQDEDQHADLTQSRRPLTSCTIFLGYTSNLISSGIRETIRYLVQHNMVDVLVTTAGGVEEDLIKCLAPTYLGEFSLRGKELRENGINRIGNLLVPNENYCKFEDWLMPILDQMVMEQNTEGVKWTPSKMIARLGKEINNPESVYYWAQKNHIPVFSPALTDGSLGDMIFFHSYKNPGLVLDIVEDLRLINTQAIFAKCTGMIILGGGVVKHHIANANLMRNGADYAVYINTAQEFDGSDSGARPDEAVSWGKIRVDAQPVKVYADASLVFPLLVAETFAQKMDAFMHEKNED
# test.name: Hyp'Assay: cell-free eIF5A hypusination in 96-well plates (recombinant eIF5A, DHPS, DOHH; anti-hypusine antibody Hpu24), substance present in the DHPS step
# Type: biochemical
# measurement.setup: 5 μM spermidine
Field: concentration from which inhibition of hypusination was detectable. Provide a value for each of the molecules that follow.

molecule	reported
N=C(N)NCCCCCCCCO [compound 4, 8-hydroxyoctylguanidine]	100 µM
N=C(N)NCCCCO [compound 1, 4-hydroxybutylguanidine]	1 µM

Please go through the list and note concentration from which inhibition of hypusination was detectable for each molecule.
1. N=C(N)NCCCCCCO [compound 2, 6-hydroxyhexylguanidine]
2. N=C(N)NCCCCCCCO [compound 3, 7-hydroxyheptylguanidine]

Result:
1 µM
1 µM

====

Field: hypusination signal, Mean (quantification from Figure 5A). Provide a value for each of the molecules that follow.
# system.under.test: DHPS (Homo sapiens, UniProt P49366)
# Construct: host or cells: E. coli BL21 (DE3)
# Sequence (P49366 1-369): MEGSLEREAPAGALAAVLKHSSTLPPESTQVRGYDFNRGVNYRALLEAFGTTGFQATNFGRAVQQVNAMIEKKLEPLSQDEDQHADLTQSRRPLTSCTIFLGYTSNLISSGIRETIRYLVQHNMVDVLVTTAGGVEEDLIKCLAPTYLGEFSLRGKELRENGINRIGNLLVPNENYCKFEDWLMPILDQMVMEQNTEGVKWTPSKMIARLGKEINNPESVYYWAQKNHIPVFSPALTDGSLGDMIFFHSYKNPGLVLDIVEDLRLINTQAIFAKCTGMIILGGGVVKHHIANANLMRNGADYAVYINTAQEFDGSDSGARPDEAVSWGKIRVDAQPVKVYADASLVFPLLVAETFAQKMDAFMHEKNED
# test.name: Hyp'Assay: cell-free eIF5A hypusination in 96-well plates (recombinant eIF5A, DHPS, DOHH; anti-hypusine antibody Hpu24), substance present in the DHPS step
# Format: biochemical
# measurement.setup: concentration 10 (no unit on page; Fig 5A 0 to 1 mM); 5 μM spermidine; control 98,5

Observe how each entry below is paired with its result.
molecule	reported
N=C(N)NCCCCCCO [compound 2, 6-hydroxyhexylguanidine]	64,4
N=C(N)NCCCCCCCCO [compound 4, 8-hydroxyoctylguanidine]	86,9
N=C(N)NCCCCO [compound 1, 4-hydroxybutylguanidine]	62,5

Now for another entry.
Query: Observed hypusination signal, Mean (quantification from Figure 5A) on DHPS (Homo sapiens, UniProt P49366) for N=C(N)NCCCCCCCO [compound 3, 7-hydroxyheptylguanidine] , please.
Result: 65,6
